# Tested System: T1, Avi-Tag Fc with human IL-2R beta and IL-2R gamma attached (Acrobiosystems ACRB-ILG-H82F3-25UG) (human, UniProt P14784 27-239; P31785 23-262)
# T1 construct: bought heterodimer; also called CD122 CD132; CD122/CD132 complex
# T1 sequence (looked up) 1: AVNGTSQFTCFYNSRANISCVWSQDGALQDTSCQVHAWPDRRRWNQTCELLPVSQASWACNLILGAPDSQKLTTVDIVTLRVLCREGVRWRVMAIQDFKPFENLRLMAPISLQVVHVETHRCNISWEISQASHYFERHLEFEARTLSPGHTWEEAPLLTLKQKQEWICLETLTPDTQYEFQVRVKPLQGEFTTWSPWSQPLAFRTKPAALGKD
# T1 sequence (looked up) 2: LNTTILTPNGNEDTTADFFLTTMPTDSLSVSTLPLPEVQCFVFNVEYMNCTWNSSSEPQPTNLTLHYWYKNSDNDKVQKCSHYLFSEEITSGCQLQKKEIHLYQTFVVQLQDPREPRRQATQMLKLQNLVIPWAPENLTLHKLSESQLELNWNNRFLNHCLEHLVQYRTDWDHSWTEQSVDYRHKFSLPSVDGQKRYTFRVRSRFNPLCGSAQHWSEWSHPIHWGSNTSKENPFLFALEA
# Protocol Text: BLI (Octet), receptor on SAX2 sensor, IL-2 as analyte
*1 amine or outer side, *2 acyl side, *3 side chain or, on linkers, in order; H or OH if unused. Bridges are numbered along the chain shown (N, C = ends). Primed or numbered codes have the meaning given here. [ ]: non-standard residue; d: D form. cleavable peptide RGRRVANLVG = CC(C)C[C@H](NC(=O)[C@H](CC(N)=O)NC(=O)[C@H](C)NC(=O)[C@@H](NC(=O)[C@H](CCCNC(=N)N)NC(=O)[C@H](CCCNC(=N)N)NC(=O)CNC(=O)[C@H](CCCNC(=N)N)N[*:1])C(C)C)C(=O)N[C@H](C(=O)NCC(=O)[*:2])C(C)C; Ygp″ = O-(PEG8-amino)-tyrosine (O-(8x polyethylene glycol-amino)-tyrosine); Yn3″ = O-(PEG9-azido)-tyrosine (O-(9x polyethylene glycol-azido)-tyrosine); Ygp = O-(8x polyethylene glycol-amino)-tyrosine; Yn3 = O-(9x polyethylene glycol-azido)-tyrosine; Ygp(3) = O-(PEG8-amino)-tyrosine; Yn3(3) = O-(PEG9-azido)-tyrosine; hSer = N[C@@H](CCO)C(=O)O; Nle = CCCC[C@H](N)C(=O)O
Classify: TRUE when Kd is strictly less than 20 nM; FALSE when Kd is not.

These recorded examples may help you get a feel for the data.
Hello, I'm reviewing records and need to know if Kd of CMP-138 (ligand, disulfide 58-105; bridge N-29; not fully specified (residue 29, bridges)) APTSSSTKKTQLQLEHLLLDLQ[Nle]ILNGIENYKNPKLTR[Nle]L[hSer][Yn3]KF[Ygp][Nle]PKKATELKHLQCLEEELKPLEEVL[hSer]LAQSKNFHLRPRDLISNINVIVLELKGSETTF[hSer]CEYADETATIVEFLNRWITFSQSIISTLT is below 20 nM. Could you check?
TRUE

Hello, I'm reviewing records and need to know if Kd of CMP-328 (ligand, disulfide 58-105; linker 9-23 via cleavable peptide RGRRVANLVG; also: macrocycle: cleavable peptide bridging Lys9 and Glu23 side chains (structure drawing only)) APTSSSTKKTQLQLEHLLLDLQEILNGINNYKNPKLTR[Nle]L[hSer][Yn3(3)]KF[Ygp(3)][Nle]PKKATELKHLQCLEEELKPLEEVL[hSer]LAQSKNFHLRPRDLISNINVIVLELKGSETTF[hSer]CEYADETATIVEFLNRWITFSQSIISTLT is below 20 nM. Could you check?
FALSE

New cases:
Hello, I'm reviewing records and need to know if Kd of CMP-319 (ligand, lactam N-33; not fully specified (bridges)) RGRRVANLVGAPTSSSTKKTQLQLEHLLLDLQEILNGINNYKNPKLTR[Nle]L[hSer][Yn3(3)]KF[Ygp(3)][Nle]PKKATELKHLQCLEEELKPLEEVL[hSer]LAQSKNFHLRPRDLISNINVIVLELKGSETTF[hSer]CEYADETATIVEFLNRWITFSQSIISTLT is below 20 nM. Could you check?
TRUE

Hello, I'm reviewing records and need to know if Kd of CMP-168 (ligand, disulfide 58-105 (inferred); bridge 9-23; not fully specified (residue 23, bridges)) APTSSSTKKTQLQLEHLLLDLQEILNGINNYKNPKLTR[Nle]L[hSer][Yn3]KF[Ygp][Nle]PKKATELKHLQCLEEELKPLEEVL[hSer]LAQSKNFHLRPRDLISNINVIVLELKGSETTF[hSer]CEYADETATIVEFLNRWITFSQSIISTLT is below 20 nM. Could you check?
FALSE

Hello, I'm reviewing records and need to know if Kd of CMP-136 (ligand, disulfide 58-105; bridge N-29; not fully specified (residue 29, bridges); also: cleavable peptide sequence not given here) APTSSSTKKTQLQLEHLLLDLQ[Nle]ILNGIENYKNPKLTR[Nle]L[hSer][Yn3″]KF[Ygp″][Nle]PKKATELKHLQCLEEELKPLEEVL[hSer]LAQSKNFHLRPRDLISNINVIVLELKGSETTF[hSer]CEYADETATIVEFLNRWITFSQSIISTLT is below 20 nM. Could you check?
TRUE
